system: hTP (Homo sapiens, UniProt P21731)
Construct: expressed in transfected cells; host or cells: HEK-293-EBNA
Sequence (P21731 1-343): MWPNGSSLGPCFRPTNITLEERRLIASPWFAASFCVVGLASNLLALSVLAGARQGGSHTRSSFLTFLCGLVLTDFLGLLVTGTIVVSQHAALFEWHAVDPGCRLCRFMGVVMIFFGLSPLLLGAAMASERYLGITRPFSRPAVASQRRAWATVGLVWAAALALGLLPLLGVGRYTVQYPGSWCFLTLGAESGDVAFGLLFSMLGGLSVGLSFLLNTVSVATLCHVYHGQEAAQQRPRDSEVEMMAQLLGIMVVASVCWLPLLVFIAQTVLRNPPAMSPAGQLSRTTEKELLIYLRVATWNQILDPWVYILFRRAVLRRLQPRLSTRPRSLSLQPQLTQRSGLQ
protocol: Functional data, human recombinant TP receptor stable transfectants
Assay type: cell-based
measurement_parameters: HEK-293-EBNA stable transfectants
endpoint_label: EC50

Worked set:
O=C(O)COCCCCN1C(=O)CCC[C@@H]1CCC(=O)Cc1ccccc1
> 10000 nM
O=C(O)COCCCCN1C(=O)CCC[C@@H]1/C=C/C(=O)Cc1ccccc1
2260 nM
O=C(O)COC/C=C\CN1C(=O)CCC[C@@H]1CCC(=O)Cc1ccccc1
> 10000 nM
NC(=O)COCCCCN1C(=O)CCC[C@@H]1/C=C/C(O)Cc1cccc(Cl)c1 (stereo partly drawn)
> 10000 nM
O=C(O)COC/C=C\CN1C(=O)CCC[C@@H]1/C=C/C(=O)Cc1ccccc1
> 10000 nM

Below: the item to evaluate.
Report EC50 under test system hTP (Homo sapiens, UniProt P21731) for "COC(=O)COCCCCN1C(=O)CCC[C@@H]1/C=C/C(=O)Cc1ccccc1" .
> 10000 nM

* * *

system: hEP2 (Homo sapiens, UniProt P43116)
Construct: expressed in transfected cells; host or cells: HEK-293-EBNA
Sequence (P43116 whole entry): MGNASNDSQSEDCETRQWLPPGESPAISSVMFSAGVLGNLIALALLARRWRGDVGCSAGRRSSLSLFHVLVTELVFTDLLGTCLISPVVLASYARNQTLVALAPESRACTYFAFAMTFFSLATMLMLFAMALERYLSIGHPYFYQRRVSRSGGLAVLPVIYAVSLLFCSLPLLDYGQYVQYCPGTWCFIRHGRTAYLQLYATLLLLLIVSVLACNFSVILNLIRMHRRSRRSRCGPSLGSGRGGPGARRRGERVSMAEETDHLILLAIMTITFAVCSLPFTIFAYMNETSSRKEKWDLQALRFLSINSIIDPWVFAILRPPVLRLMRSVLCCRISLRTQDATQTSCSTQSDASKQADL
protocol: Functional data, human recombinant EP2 receptor stable transfectants
Format: cell-based
measurement_parameters: HEK-293-EBNA stable transfectants
endpoint_label: EC50

Find the measured EC50 of O=C(O)COCCCCN1C(=O)CCC[C@@H]1/C=C/C(O)Cc1cccc(Cl)c1 (stereo partly shown) and report it.
> 10000 nM

* * *

system: hEP3A (Homo sapiens, UniProt P43115)
Construct: expressed in transfected cells; host or cells: HEK-293-EBNA
Sequence (P43115 whole entry): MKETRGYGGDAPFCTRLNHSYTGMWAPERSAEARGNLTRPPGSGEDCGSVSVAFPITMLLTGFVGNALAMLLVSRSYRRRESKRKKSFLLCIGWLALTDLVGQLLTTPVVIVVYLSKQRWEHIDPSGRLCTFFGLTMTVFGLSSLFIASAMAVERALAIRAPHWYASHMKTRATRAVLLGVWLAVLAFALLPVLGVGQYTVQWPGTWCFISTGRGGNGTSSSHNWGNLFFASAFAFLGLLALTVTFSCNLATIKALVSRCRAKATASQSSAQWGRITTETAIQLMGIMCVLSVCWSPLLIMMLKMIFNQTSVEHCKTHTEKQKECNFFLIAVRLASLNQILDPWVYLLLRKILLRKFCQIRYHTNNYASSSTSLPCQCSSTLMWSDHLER
protocol: Functional data, human recombinant EP3 receptor stable transfectants
Type: cell-based
measurement_parameters: HEK-293-EBNA stable transfectants
This section presents compounds with their documented EC50 values.

COC(=O)COCCCCN1C(=O)CCC[C@@H]1CCC(O)Cc1ccccc1 (some centres unmarked)
> 10000 nM

Below: the item to evaluate.
Find the measured EC50 of "O=C(O)COCCCCN1C(=O)CCC[C@@H]1/C=C/C(=O)Cc1ccccc1" and report it.
> 10000 nM

* * *

system: hEP1 (Homo sapiens)
Construct: expressed in transfected cells; host or cells: HEK-293-EBNA
Sequence (P34995 1-402): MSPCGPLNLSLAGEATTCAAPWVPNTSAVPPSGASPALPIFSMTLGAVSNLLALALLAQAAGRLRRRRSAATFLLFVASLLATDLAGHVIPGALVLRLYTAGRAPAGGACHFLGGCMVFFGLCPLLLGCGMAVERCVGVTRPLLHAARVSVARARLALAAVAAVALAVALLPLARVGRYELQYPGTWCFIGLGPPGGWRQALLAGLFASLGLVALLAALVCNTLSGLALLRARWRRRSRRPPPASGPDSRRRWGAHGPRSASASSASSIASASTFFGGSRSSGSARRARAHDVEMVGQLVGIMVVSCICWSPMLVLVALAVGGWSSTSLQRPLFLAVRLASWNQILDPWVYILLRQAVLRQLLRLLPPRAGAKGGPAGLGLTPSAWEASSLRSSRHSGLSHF
protocol: Functional data, human recombinant EP1 receptor stable transfectants
Format: cell-based
measurement_parameters: HEK-293-EBNA stable transfectants
endpoint_label: EC50

Find the measured EC50 of O=C(O)COCCCCN1C(=O)CCC[C@@H]1/C=C/C(O)Cc1cccc(Cl)c1 (stereo partly shown) [Example 17] and report it.
> 10000 nM

* * *

This section presents molecules with their documented EC50 values.
system: hEP4 (Homo sapiens, UniProt P35408)
Construct: expressed in transfected cells; host or cells: HEK-293-EBNA
Sequence (P35408 whole entry): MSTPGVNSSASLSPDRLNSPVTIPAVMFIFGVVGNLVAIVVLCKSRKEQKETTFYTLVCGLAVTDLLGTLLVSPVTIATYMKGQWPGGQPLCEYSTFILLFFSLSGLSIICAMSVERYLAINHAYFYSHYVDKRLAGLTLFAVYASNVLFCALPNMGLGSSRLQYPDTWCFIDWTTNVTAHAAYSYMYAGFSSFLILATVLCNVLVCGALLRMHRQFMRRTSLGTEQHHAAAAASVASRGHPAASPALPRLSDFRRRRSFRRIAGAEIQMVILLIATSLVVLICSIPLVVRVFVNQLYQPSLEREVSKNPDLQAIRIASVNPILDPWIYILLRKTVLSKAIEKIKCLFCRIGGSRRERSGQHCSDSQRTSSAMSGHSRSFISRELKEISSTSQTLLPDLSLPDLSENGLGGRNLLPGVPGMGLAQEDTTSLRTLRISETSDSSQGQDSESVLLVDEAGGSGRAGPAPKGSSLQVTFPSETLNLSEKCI
protocol: Functional data, human recombinant EP4 receptor stable transfectants
Format: cell-based
measurement_parameters: HEK-293-EBNA stable transfectants
Description: Human Recombinant EP1, EP2, EP3, EP4, FP, TP, IP and DP Receptors: Stable Transfectants. Plasmids encoding the human EP1, EP2, EP3, EP4, FP, TP, IP and DP receptors were prepared by cloning the respective coding sequences into the eukaryotic expression vector pCEP4 (Invitrogen). The pCEP4 vector contains an Epstein Barr virus (EBV) origin of replication, which permits episomal replication in primate cell lines expressing EBV nuclear antigen (EBNA-1). […]

Worked set:
COC(=O)COCCCCN1C(=O)CCC[C@@H]1CCC(O)Cc1ccccc1 (some centres unmarked) [Example 5]
> 10000 nM
O=C(O)COC/C=C\CN1C(=O)CCC[C@@H]1CCC(O)Cc1ccccc1 (some centres unmarked) [Example 16]
> 10000 nM

Find the measured EC50 of O=C(O)COCCCCN1C(=O)CCC[C@@H]1CCC(O)Cc1ccccc1 (some centres unmarked) [Example 6] and report it.
> 10000 nM

Find the measured EC50 of O=C(O)COC/C=C\CN1C(=O)CCC[C@@H]1/C=C/C(O)Cc1ccccc1 (some centres unmarked) [Example 12] and report it.
> 10000 nM

Find the measured EC50 of O=C(O)COC/C=C\CN1C(=O)CCC[C@@H]1CCC(=O)Cc1ccccc1 [Example 14] and report it.
> 10000 nM
